Here is a set of molecules with reported IC50 for BTK (Homo sapiens, UniProt Q06187), compiled from the literature.

query: Fill in IC50 for record CC(C)(C)c1cc(F)c2c(=O)n(-c3cccc(-n4cc(C(N)=O)c5ccc(-c6ccccc6F)nc54)c3CO)ncc2c1
result: 14.3 nM

query: Fill in IC50 for record N#Cc1cc(Cl)cc(NCC(=O)N[C@@H]2CCCN(c3ncnc4[nH]ccc34)C2)c1
result: 100 to 999 nM

query: Fill in IC50 for record Cc1cc(-c2cc(Nc3cc4n(n3)CCCN(C)C4)ncn2)ccc1CNC(=O)c1cnn(C(C)(C)C)c1
result: < 10 nM

query: Fill in IC50 for record NC(=O)c1nnc2c(-c3cc(F)c4c(c3)CC(=O)N4)cccc2c1N
result: 3160 nM

query: Fill in IC50 for record C=CS(=O)(=O)Nc1cccc(Nc2cc(Nc3cccc(C)c3)ncn2)c1
result: ≤ 10 nM

query: Fill in IC50 for record O=C(CNc1cccc(-c2ccccc2)c1)NC1CCCN(c2ncnc3[nH]ccc23)C1 (stereo not shown)
result: < 100 nM

query: Fill in IC50 for record CCc1ccc2c(N)c(C(N)=O)nnc2c1-c1ccc2cn[nH]c2c1
result: 10 nM

query: Fill in IC50 for record C=CC(=O)N1CCCC(c2cc(-c3ccc(Oc4ccccc4)cc3)cc3cnc(N)nc23)C1 (stereo not shown)
result: < 100 nM

query: Fill in IC50 for record CC(C)(C)c1ccc(C(=O)NCc2ccc(-c3ncnc4[nH]ccc34)cc2C#N)nc1
result: 10 to 99 nM

query: Fill in IC50 for record CC#CC(=O)N[C@H]1CC[C@H](n2nc(-c3ccc(Oc4ccccc4)cc3)c3cncnc32)CC1
result: > 500 nM

query: Fill in IC50 for record C=CC(=O)N1CCC(n2nc(-c3ccc(Oc4ccccc4)cc3)c3c(N)ncc(-c4cnn(C)c4)c32)CC1
result: 5.1 nM

query: Fill in IC50 for record C[C@@]1(c2nc(-c3ccc(C(=O)Nc4cc(C5CC5)ccn4)cc3F)c3c(N)nccn23)CC[C@H]2COC(=O)N2C1
result: 0.18 nM

query: Fill in IC50 for record CCN(CC)S(=O)(=O)Nc1ccc(F)c(C(=O)c2c[nH]c3ncc(-c4cnc(OC)nc4)cc23)c1F
result: ≤ 10000 nM

query: Fill in IC50 for record CC#CC(=O)N1CC[C@@H](c2nc(-c3ccc(Oc4ccccc4)cc3)c3cnccn23)C1
result: < 100 nM

query: Fill in IC50 for record Cn1cc(-c2cnc3[nH]cc(C(=O)c4cccc(NS(=O)(=O)c5ccc(F)cc5)c4)c3c2)cn1
result: ≤ 10000 nM

query: Fill in IC50 for record O=C(NC1CCCc2cc(-c3ncnc4[nH]ccc34)ccc21)c1cc2c(s1)CCCC2 (stereo not shown)
result: 10 to 99 nM

----------
Here is a set of compounds with reported pIC50 for BTK (Homo sapiens, UniProt Q06187), compiled from the literature.
pIC50: −log10 of the molar value.

query: Determine reported pIC50 for N#Cc1cc(-c2cn(C3Cc4ccccc4C3)c3ncnc(N)c23)cc(O)c1F ; test system: BTK (Homo sapiens, UniProt Q06187).
Sequence (Q06187 whole entry): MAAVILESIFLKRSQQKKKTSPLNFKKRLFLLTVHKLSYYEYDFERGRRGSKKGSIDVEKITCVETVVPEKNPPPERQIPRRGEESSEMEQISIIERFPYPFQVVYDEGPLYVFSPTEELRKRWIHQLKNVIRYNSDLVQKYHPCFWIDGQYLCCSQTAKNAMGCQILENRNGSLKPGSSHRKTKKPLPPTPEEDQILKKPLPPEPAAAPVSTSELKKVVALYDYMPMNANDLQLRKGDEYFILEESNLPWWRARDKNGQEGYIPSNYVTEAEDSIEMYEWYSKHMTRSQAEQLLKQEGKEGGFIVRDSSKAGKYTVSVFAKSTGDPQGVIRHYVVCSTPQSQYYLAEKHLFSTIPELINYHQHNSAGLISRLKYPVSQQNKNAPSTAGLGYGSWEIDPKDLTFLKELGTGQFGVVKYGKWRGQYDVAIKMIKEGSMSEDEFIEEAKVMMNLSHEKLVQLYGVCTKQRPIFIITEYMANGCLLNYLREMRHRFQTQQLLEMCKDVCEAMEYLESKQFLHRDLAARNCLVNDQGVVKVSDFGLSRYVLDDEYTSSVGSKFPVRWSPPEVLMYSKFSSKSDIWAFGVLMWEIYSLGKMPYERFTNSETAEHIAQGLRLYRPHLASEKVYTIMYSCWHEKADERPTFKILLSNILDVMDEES
result: 7.10

query: Determine reported pIC50 for O=C(CNc1cccc(Cl)c1Cl)N[C@@H]1CCCN(c2ncnc3[nH]ccc23)C1 ; test system: BTK (Homo sapiens, UniProt Q06187).
result: 6.00 to 7.00

query: Determine reported pIC50 for Cc1ccc(F)c(NCC(=O)N[C@@H]2CCCN(c3ncnc4[nH]ccc34)C2)c1 ; test system: BTK (Homo sapiens, UniProt Q06187).
result: 6.00 to 7.00

query: Determine reported pIC50 for O=C1CCc2c(ncnc2N[C@H]2CCCN(C(=O)CNc3cc(Cl)cc(Cl)c3)C2)N1 ; test system: BTK (Homo sapiens, UniProt Q06187).
result: < 5.00

query: Determine reported pIC50 for Cn1cc(Nc2nccc(-c3ccc4c(c3)OCCC4NC(=O)c3cnc(C(C)(C)C)s3)n2)cn1 (stereo not drawn) ; test system: BTK (Homo sapiens, UniProt Q06187).
result: > 8.00

query: Determine reported pIC50 for Cc1cc(-c2ccnc(Nc3cnn([C@@H]4CCNC[C@H]4F)c3)n2)ccc1CNC(=O)N1CC(OC(C)C)C1 (relative stereo) ; test system: BTK (Homo sapiens, UniProt Q06187).
result: > 8.00

query: Determine reported pIC50 for Cn1cc(Nc2nccc(-c3ccc(CNC(=O)c4cnn(C(C)(C)C)c4)c(C(F)(F)F)c3)n2)cn1 ; test system: BTK (Homo sapiens, UniProt Q06187).
result: > 8.00

query: Determine reported pIC50 for CN(C)C/C=C/C(=O)Nc1cccc(-n2nc(-c3ccc(Cl)cc3)c3c(N)ncnc32)c1 ; test system: BTK (Homo sapiens, UniProt Q06187).
result: > 7.00

query: Determine reported pIC50 for C=CC(=O)N1CC2CC1C(n1nc(-c3ccc(Oc4ccncc4)cc3)c3c(N)ncnc31)C2 (stereo not drawn) ; test system: BTK (Homo sapiens, UniProt Q06187).
result: < 6.00

query: Determine reported pIC50 for C=CC(=O)Nc1cccc(Oc2nc(Nc3ccc(N4CCC(N5CCCCC5)CC4)nc3)nc3ccsc23)c1 ; test system: BTK (Homo sapiens, UniProt Q06187).
result: ≥ 7.30

query: Determine reported pIC50 for Nc1ncnc2c1c(-c1ccc(Oc3ccccc3)cc1)nn2C[C@H]1SSC[C@H]1O ; test system: BTK (Homo sapiens, UniProt Q06187).
result: 7.00 to 8.30

query: Determine reported pIC50 for CC#CC(=O)N1CCC2(CC1)CC(c1nc(-c3ccc(C(=O)Nc4ccccn4)cc3)c3c(N)nccn13)CO2 (stereo not drawn) ; test system: BTK (Homo sapiens, UniProt Q06187).
result: 6.17

query: Determine reported pIC50 for CN(C)C/C=C/C(=O)N1CCC[C@@H](n2cc(-c3ccc(Oc4ccccc4)cc3F)c3c(N)n[nH]c(=O)c32)C1 ; test system: BTK (Homo sapiens, UniProt Q06187).
result: ≥ 8.00

query: Determine reported pIC50 for CN(C)C/C=C/C(=O)N[C@H]1CC[C@H](n2nc(-c3ccc(Oc4ccccc4)cc3)c3c(N)ncnc32)CC1 ; test system: BTK (Homo sapiens, UniProt Q06187).
result: 8.86

query: Determine reported pIC50 for CN(C/C=C/C(=O)N1CC[C@@H](n2c(C3CC3)c(-c3ccc(Oc4ccccc4)cc3)c3c(N)ncnc32)C1)[C@@H]1CCOC1 ; test system: BTK (Homo sapiens, UniProt Q06187).
result: > 7.00

----------
Here is a set of molecules with reported IC50 for BTK (Homo sapiens), compiled from the literature.

query: Fill in IC50 for record O=C(CNc1cc(C(F)(F)F)cc(C(F)(F)F)c1)N1CCC[C@H](Nc2ncnc3[nH]ncc23)C1
result: > 10000 nM

query: Fill in IC50 for record O=C(CNc1ccc(F)cc1)NC1CCCN(c2ncnc3[nH]ccc23)C1 (stereo not drawn)
result: 1000 to 10000 nM

query: Fill in IC50 for record CC(C)n1cc(Nc2nccc(-c3ccc4c(c3)CCCCC4NC(=O)N3CC(OC(C)(C)C)C3)n2)cn1 (stereo not drawn)
result: < 10 nM

query: Fill in IC50 for record N#CN1CCC[C@@H](n2c(Cl)c(-c3ccc(Oc4ccccc4F)cc3)c3c(N)n[nH]c(=O)c32)C1
result: 1000 to 100000 nM

query: Fill in IC50 for record Cc1cc(-c2ccnc(NC(C)c3ccncc3)n2)ccc1CNC(=O)c1cnc(C(C)(C)C)s1 (stereo not drawn)
result: 1000 to 10000 nM

query: Fill in IC50 for record C[C@H]1CN(C2COC2)CCN1c1ccc(Nc2cc(-c3ccc(C#N)c(N4CCn5c(cc6c5CC(C)(C)C6)C4=O)c3CO)cn(C)c2=O)nc1
result: 0.41 nM

query: Fill in IC50 for record Cc1cc(-c2ccnc(N)n2)ccc1CNC(=O)c1cc2c(s1)CCN(C)C2
result: 100 to 999 nM

query: Fill in IC50 for record Cc1cc(-c2ccnc(N)n2)ccc1CNC(=O)c1cc2c(s1)CCNC2
result: 10 to 99 nM

query: Fill in IC50 for record CCC[C@@H](Nc1cccc(Cl)c1)C(=O)N[C@@H]1CCCN(c2ncnc3[nH]ccc23)C1
result: < 100 nM

query: Fill in IC50 for record CC#CC(=O)N1CCC(C2CCNn3c2nc(-c2ccc(Oc4ccc(F)cc4)cc2)c3C(N)=O)CC1 (stereo not drawn)
result: 122 nM

query: Fill in IC50 for record COCCn1cc(Nc2nccc(-c3ccc4c(c3)CCCC[C@H]4NC(=O)N3CC(OC(C)C)C3)n2)cn1
result: < 10 nM

query: Fill in IC50 for record C=CC(=O)N1C2CN[C@@H](C2)C1c1nc(-c2ccc(C(C)(O)c3ccccc3)cc2)c2c(N)nccn12 (stereo partly drawn)
result: 29 nM

query: Fill in IC50 for record COc1cccc(Oc2ccc(-c3nc(C4CCC(O)CC4)n4ccnc(N)c34)cc2)c1C (stereo not drawn)
result: 10 to 100 nM

query: Fill in IC50 for record CN(C)C/C=C/C(=O)N1CCC(n2cc(-c3ccc(Oc4ccccc4)cc3)c3c(N)n[nH]c(=O)c32)CC1
result: 10 to 1000 nM

query: Fill in IC50 for record COCCn1cc(Nc2nccc(-c3ccc(CNC(=O)N4CCC(C(C)(C)C)C4)c(C(F)(F)F)c3)n2)cn1 (stereo not drawn)
result: < 10 nM
